src = patent US9676782B2

# measurementTarget: rat mGlu3 (Rattus norvegicus (Rat), UniProt P31422)
# Sequence (P31422 23-879): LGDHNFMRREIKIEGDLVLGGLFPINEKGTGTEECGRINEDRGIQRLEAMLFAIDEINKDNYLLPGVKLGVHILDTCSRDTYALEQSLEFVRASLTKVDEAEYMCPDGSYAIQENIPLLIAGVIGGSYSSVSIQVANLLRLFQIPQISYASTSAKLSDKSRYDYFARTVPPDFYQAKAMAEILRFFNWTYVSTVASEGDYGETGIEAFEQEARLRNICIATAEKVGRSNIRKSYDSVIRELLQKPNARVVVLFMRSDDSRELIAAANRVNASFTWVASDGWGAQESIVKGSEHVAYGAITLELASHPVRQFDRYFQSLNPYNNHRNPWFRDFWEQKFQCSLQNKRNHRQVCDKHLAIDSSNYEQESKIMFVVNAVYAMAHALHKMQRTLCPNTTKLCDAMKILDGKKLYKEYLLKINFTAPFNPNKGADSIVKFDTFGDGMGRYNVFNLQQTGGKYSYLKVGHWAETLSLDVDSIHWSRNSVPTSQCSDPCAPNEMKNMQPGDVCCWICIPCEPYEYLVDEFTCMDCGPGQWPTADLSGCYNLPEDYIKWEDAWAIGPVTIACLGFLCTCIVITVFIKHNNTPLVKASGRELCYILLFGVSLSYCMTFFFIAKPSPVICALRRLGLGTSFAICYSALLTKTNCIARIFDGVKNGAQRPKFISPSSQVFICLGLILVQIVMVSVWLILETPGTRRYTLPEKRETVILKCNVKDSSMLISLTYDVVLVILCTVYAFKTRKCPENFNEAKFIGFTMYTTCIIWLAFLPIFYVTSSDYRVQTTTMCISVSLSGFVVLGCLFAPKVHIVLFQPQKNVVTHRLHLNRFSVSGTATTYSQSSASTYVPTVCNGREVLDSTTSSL
# protocolSummary: mGlu3 Ca2+ flux assay
# Format: cell-based
# recordedConditions: Table 2 compounds with X = NMe; read-out: mGlu3 IC50
measuredQuantity: pIC50
Scale: pIC50 equals -log10([C]), with [C] in mol/L.

query: Recorded pIC50 for CN(Cc1cc2n(n1)CCN(c1ccc(F)cc1)C2=O)c1cccc(F)c1 [drawing 31 X = NMe] with rat mGlu3 (Rattus norvegicus (Rat), UniProt P31422), please?
result: 6.23

query: Recorded pIC50 for CN(Cc1cc2n(n1)CCN(c1ccc(F)cc1)C2=O)c1ccccc1 [drawing 29 X = NMe] with rat mGlu3 (Rattus norvegicus (Rat), UniProt P31422), please?
result: 5.91

query: Recorded pIC50 for CN(Cc1cc2n(n1)CCN(c1ccc(F)cc1)C2=O)c1ccccc1F [drawing 30 X = NMe] with rat mGlu3 (Rattus norvegicus (Rat), UniProt P31422), please?
result: 6.06

query: Recorded pIC50 for CN(Cc1cc2n(n1)CCN(c1ccc(F)cc1)C2=O)c1ccc(F)cc1 [drawing 32 X = NMe] with rat mGlu3 (Rattus norvegicus (Rat), UniProt P31422), please?
result: 6.33
